# Test system: primary human airway basal cells (HBEC, luciferase-transduced)
# procedure details: proliferation (luciferase bioluminescence) Z score relative to plate mean; higher = more proliferation / more cells, active = 1.96 or more
# conditions used: donor: 1; 0.5 µM; library: ENZO Libraries; 4 days
Decide using proliferation: a value greater than or equal to -0.1 is class 1, a smaller one is class 0.

Completed entries (count: 5):
                                   compound  category_label
0  CCC(=O)CCCCC[C@@H]1NC(=O)[C@H]2CCCCN2C(=O)[C@H]([C@@H](C)CC)NC(=O)[C@H](Cc2cn(OC)c3ccccc23)NC1=O         class 0
1            N#C/C(=C\c1ccc(O)c(O)c1)C(N)=S         class 1
2  CC(=O)Oc1ccc(/C=C/c2cc(OC(C)=O)cc(OC(C)=O)c2)cc1         class 1
3  N[C@@H]1C[C@H]1c1ccccc1.N[C@H]1C[C@@H]1c1ccccc1 [Tranylcypromine hemisulfate]         class 0
4      N#CC(C#N)=Cc1ccc([N+](=O)[O-])c(O)c1         class 0

Please tell me: is the compound `C/C(O)=C(\C#N)C(=O)Nc1cc(Br)ccc1Br` at or over -0.1 in terms of proliferation?
class 1

Please tell me: is the compound `N#CC(C#N)=Cc1ccc(O)c(O)c1` at or over -0.1 in terms of proliferation?
class 1

###

# System: primary human airway basal cells (HBEC, luciferase-transduced)
# procedure details: proliferation (luciferase bioluminescence) Z score relative to plate mean; higher = more proliferation / more cells, active = 1.96 or more
# conditions used: donor: 1; 5 µM; library: ENZO Libraries; 4 days
Select the correct class. Options are Yes (active), No (inactive) and nothing else.

Completed entries (count: 8):
>>> df
                                   compound                               measured_on  category_label
0                   NCCc1ccc(S(=O)(=O)F)cc1  primary human airway basal cells (HBEC, luciferase-transduced)              No
1  CC(=O)c1c(O)c(C)c(O)c(Cc2c(O)c3c(c(C(=O)/C=C/c4ccccc4)c2O)OC(C)(C)C=C3)c1O  primary human airway basal cells (HBEC, luciferase-transduced)              No
2        C/C(O)=C(\C#N)C(=O)Nc1cc(Br)ccc1Br  primary human airway basal cells (HBEC, luciferase-transduced)              No
3              N#CC(C#N)=Cc1cc(O)c(O)c(O)c1  primary human airway basal cells (HBEC, luciferase-transduced)              No
4      N#CC(C#N)=Cc1ccc([N+](=O)[O-])c(O)c1  primary human airway basal cells (HBEC, luciferase-transduced)              No
5                 N#CC(C#N)=Cc1ccc(O)c(O)c1  primary human airway basal cells (HBEC, luciferase-transduced)              No
6   N#CC(C#N)=Cc1cc(O)c(O)c([N+](=O)[O-])c1  primary human airway basal cells (HBEC, luciferase-transduced)              No
7  CCC(=O)CCCCC[C@@H]1NC(=O)[C@H]2CCCCN2C(=O)[C@H]([C@@H](C)CC)NC(=O)[C@H](Cc2cn(OC)c3ccccc23)NC1=O  primary human airway basal cells (HBEC, luciferase-transduced)              No

Returns: the outcome recorded for `N#C/C(=C\c1ccc(O)c(O)c1)C(N)=S` in this assay.
No

Returns: the outcome recorded for N[C@@H]1C[C@H]1c1ccccc1.N[C@H]1C[C@@H]1c1ccccc1 [Tranylcypromine hemisulfate] in this assay.
No

Returns: the outcome recorded for `COC[C@H]1OC(=O)c2coc3c2[C@@]1(C)C1=C(C3=O)[C@@H]2CCC(=O)[C@@]2(C)C[C@H]1OC(C)=O` in this assay.
No

Returns: the outcome recorded for `CC(=O)Oc1ccc(/C=C/c2cc(OC(C)=O)cc(OC(C)=O)c2)cc1` in this assay.
Yes

###

Recorded measurements of proliferation, one per entry
# Tested on: primary human airway basal cells (HBEC, luciferase-transduced)
# procedure details: proliferation (luciferase bioluminescence) Z score relative to plate mean; higher = more proliferation / more cells, active = 1.96 or more
# conditions used: donor: 1; 0.5 µM; library: ENZO Libraries; 4 days
Returns: the value as a bare number; no unit string appended.

Known results for compounds:
                              line_notation                               measured_on   readout_name  reported
0  CC(=O)c1c(O)c(C)c(O)c(Cc2c(O)c3c(c(C(=O)/C=C/c4ccccc4)c2O)OC(C)(C)C=C3)c1O  primary human airway basal cells (HBEC, luciferase-transduced)  proliferation     0.583
1  COC[C@H]1OC(=O)c2coc3c2[C@@]1(C)C1=C(C3=O)[C@@H]2CCC(=O)[C@@]2(C)C[C@H]1OC(C)=O  primary human airway basal cells (HBEC, luciferase-transduced)  proliferation     -1.04

Okay, next one:
Please tell me the measured proliferation for `N#CC(C#N)=Cc1cc(O)c(O)c([N+](=O)[O-])c1` ; system: primary human airway basal cells (HBEC, luciferase-transduced).
-0.414

Origin of the recorded values: the supplement of paper PMC12045047
